system: barnyardgrass (Echinochloa crus-galli); experiment: Test A postemergence, barnyardgrass; type: in vivo; conditions: 500 g ai/ha, postemergence; 0 to 100 scale, 0 is no effect, 100 is complete control; approximately 10 days
Item-by-item account of Plant response rating, Barnyardgrass

# Compound, Plant response rating, Barnyardgrass
data = [
    ("CC(C)CCCOc1c(Br)cccc1Oc1ncc(Cl)cn1", 90),
    ("CC(COc1c(C#N)cccc1Oc1ncc(Cl)cn1)CC(F)(F)F (stereo not drawn)", 50),
    ("Fc1cccc(Oc2ncc(Cl)cn2)c1OC/C=C/Cl", 80),
    ("N#Cc1cccc(Oc2ncc(Cl)cn2)c1OCc1ccccc1Cl", 10),
    ("N#Cc1cccc(Oc2ncc(Cl)cn2)c1OCc1ccc(Cl)cc1", 50),
    ("Fc1cccc(Oc2ncc(Cl)cn2)c1OCCCC(F)(F)F", 80),
    ("FC(F)C(F)(F)C(F)(F)C(F)(F)COc1c(Br)cccc1Oc1ncc(Cl)cn1", 100),
    ("N#CCCCOc1c(F)cccc1Oc1ncc(Cl)cn1", 50),
    ("N#Cc1cccc(Oc2ncc(Cl)cn2)c1OCC(F)(F)C(F)F", 100),
    ("FC(F)(F)c1ccc(COc2c(Br)cccc2Oc2ncc(Cl)cn2)cc1", 20),
    ("N#Cc1cccc(Oc2ncc(Cl)cn2)c1OCc1cccc(Cl)c1", 20),
    ("N#Cc1cccc(Oc2ncc(Cl)cn2)c1OCc1ccc(C(F)(F)F)cc1", 30),
    ("Fc1cccc(Oc2ncc(Cl)cn2)c1OC/C=C/C(F)(F)F", 90),
    ("FC(F)COc1c(Br)cccc1Oc1ncc(Cl)cn1", 90),
    ("N#Cc1cccc(Oc2ncc(Cl)cn2)c1OCC(F)F", 90),
    ("FCCCOc1c(F)cccc1Oc1ncc(Cl)cn1", 60),
    ("Fc1cccc(Oc2ncc(Cl)cn2)c1OCCC(F)(F)F", 70),
    ("CC(C)CCOc1c(Br)cccc1Oc1ncc(Cl)cn1", 100),
]
